Assay: Plasma concentrations of TQS-168 and TQS-621 after single oral dose 50 mg/kg in mice, three formulations
Format: in vivo
Conditions: male, C57BL/6, mouse, plasma, po, 50 mg/kg, mice plasma, TQS-168 50 mg/kg p.o., Group 1 (suspension, 0.5% methylcellulose in PBS), mean
Protocol: In a second experiment, mice were administered 50 mg/kg TQS-168 by oral gavage. For Group 1, TQS-168 was prepared at a concentration of 5.0 mg/mL in a suspension with […] in PBS. For Group 2, TQS-168 was prepared at a concentration of 5.0 mg/mL as a solution in 10 polyethylene glycol (PEG) 400|30 Kleptose (Roquete)|60% water. […] Plasma concentrations of TQS-168 and TQS-621 were measured overtime.
Catalogue of molecules with associated AUC(0-inf)

- Chemical smiles: "CC(C)(C)c1ccc(-c2nc3ccccc3[nH]2)cc1"
  AUC(0-inf): "8110 ng·h/mL"
- Chemical smiles: "CC(C)(C)c1ccc(-c2nc3cc(O)ccc3[nH]2)cc1"
  AUC(0-inf): "8200 ng·h/mL"
